All figures here come from patent US7705038B2.

System: cat fleas (Ctenocephalides felis)
Assay: Contact activity against cat fleas (LC50, % kill)
Settings: concentration required to kill 50% of the sample of cat fleas on contact
Excerpt: Exemplified compounds of Formula 1 are listed by Tables 1a and 1b, above. The activity of these compounds against Haemonchus contortus and cat fleas (Ctenocephalides felis) is summarized by Table 7, below.
Assay Endpoint: LC50 (μg/cm^2)
One number for each entry, in μg/cm^2.

Consider the reported LC50 for these compounds:
Mol: N#C/C(=C\c1ccc[nH]1)c1cccc(C(F)(F)F)c1
Reading: 9.94

Mol: CC(C)(C)c1ccc(/C(C#N)=C/c2ccc[nH]2)cc1
Reading: 0.478

Mol: N#C/C(=C\c1ccc[nH]1)c1cccc(F)c1
Reading: 0.78

Mol: N#C/C(=C\c1ccc[nH]1)c1ccc(Cl)cc1
Reading: 0.17

Mol: N#C/C(=C\c1ccc[nH]1)c1ccccc1F
Reading: 0.594

Give LC50 for each listed item.
1. N#C/C(=C\c1ccc[nH]1)c1ccc(F)cc1
2. Cc1ccccc1/C(C#N)=C/c1ccc[nH]1
3. N#C/C(=C\c1ccc[nH]1)c1ccccc1

0.295
0.076
0.259
